Values were extracted from the supplement of paper PMC10567573.

B1: LCOR (parent)
chain: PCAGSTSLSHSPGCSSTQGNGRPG

- Variants of: B1
- assay-summary: protein stability index of a GFP-peptide fusion (GPS, HEK-293T) (PSI 1-6); higher = more stable;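 also: lentivirally expressed fusions sorted by FACS into six bins by GFP to DsRed ratio, PSI derived from sequencing read proportions per bin multiplied by bin number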
- condition-context: c terminus: a fixed tail appended
Could you please classify the records by protein stability index using these ranges: bottom range: < 3; center range: ≥ 3 and < 4; top range: ≥ 4

INSERT INTO results (mutation_id, group) VALUES
  ('C2R', 'top range'),
  ('P23F', 'bottom range'),
  ('T17F', 'bottom range'),
  ('G24S', 'center range'),
  ('G21Q', 'center range'),
  ('S15G', 'bottom range'),
  ('G13H', 'center range'),
  ('S11H', 'center range'),
  ('G24V', 'bottom range'),
  ('S7D', 'top range'),
  ('G24T', 'center range'),
  ('P1I', 'center range'),
  ('A3S', 'center range'),
  ('H10Q', 'top range'),
  ('P23Q', 'bottom range'),
  ('G19A', 'center range'),
  ('T6S', 'bottom range'),
  ('P12D', 'top range'),
  ('Q18E', 'center range'),
  ('G19W', 'bottom range'),
  ('G4F', 'bottom range'),
  ('G13K', 'center range'),
  ('G19S', 'center range'),
  ('A3G', 'center range'),
  ('Q18Y', 'bottom range'),
  ('S11Y', 'bottom range'),
  ('P23S', 'center range'),
  ('G24H', 'center range'),
  ('G4I', 'bottom range'),
  ('S7F', 'bottom range'),
  ('P12F', 'bottom range'),
  ('L8R', 'center range'),
  ('G4K', 'top range'),
  ('P1R', 'center range'),
  ('N20D', 'center range'),
  ('T6W', 'bottom range'),
  ('S16M', 'bottom range'),
  ('S5N', 'bottom range'),
  ('S16Y', 'bottom range'),
  ('N20F', 'bottom range'),
  ('S15D', 'top range'),
  ('R22N', 'top range'),
  ('H10E', 'top range'),
  ('G13M', 'bottom range'),
  ('G13R', 'center range'),
  ('P1S', 'center range'),
  ('L8N', 'top range'),
  ('C14H', 'top range'),
  ('T6P', 'center range'),
  ('T17I', 'bottom range'),
  ('N20S', 'center range'),
  ('S5W', 'center range'),
  ('G21N', 'center range'),
  ('L8C', 'top range'),
  ('P23R', 'center range'),
  ('G13T', 'bottom range'),
  ('L8I', 'center range'),
  ('C14R', 'center range'),
  ('P1A', 'bottom range'),
  ('S7Y', 'bottom range'),
  ('S16I', 'bottom range'),
  ('R22Y', 'top range'),
  ('A3K', 'top range');
